Provenance of the data: paper PMC8508980

- Test system: SK-MEL-5
- assay_overview: NCI 60 cell line screen
- Format: cell-based, human
- measurement_context: Homo sapiens; SK-MEL-5, Melanoma; read-out: Percent growth
- Protocol: Anticancer profiling over a panel of 60 cancer cell lines was carried out at the National Cancer Institute (NCI), Bethesda, Maryland, USA, https://dtp.cancer.gov/discovery_development/nci-60/methodology.htm (Last visit 22 September 2021), using the standard procedure (detailed procedure is located in the Supplementary Information page 50 s). NCI standard procedure for 60 cell lines assay […] Three dose response parameters are calculated for each experimental agent. […] (TGI) is calculated from Ti = Tz.
Reported activity at 10 µM values are given for each entry in this list.

compound | unit_annotation | activity at 10 µM
O=S(=O)(NCCCNc1nccc(-n2cnc3ccccc32)n1)c1ccc(Br)cc1 [12k] | % | 53.5
O=S(=O)(NCCNc1nccc(-n2cnc3ccccc32)n1)c1ccccc1 [12a] | % | 95.8
O=S(=O)(NCCCNc1nccc(-n2cnc3ccccc32)n1)c1ccc(Cl)cc1 [12j] | % | 76.2
O=S(=O)(NCCCNc1nccc(-n2cnc3ccccc32)n1)c1ccc(C(F)(F)F)cc1 [12l] | % | 29.9
O=S(=O)(NCCNc1nccc(-n2cnc3ccccc32)n1)c1ccc(Br)cc1 [12d] | % | 89.1
O=S(=O)(NCCNc1nccc(-n2cnc3ccccc32)n1)c1ccc(F)cc1 [12b] | % | 78
COc1ccc(S(=O)(=O)NCCCNc2nccc(-n3cnc4ccccc43)n2)cc1 [12m] | % | 70.1

---

activity at 10 µM values for the molecules below.
- System: TK-10
- assay_overview: NCI 60 cell line screen
- Type: cell-based
- measurement_context: Homo sapiens; TK-10, Renal Cancer; read-out: Percent growth
outcome_measure: activity at 10 µM (%)

molecule | outcome_measure | val
O=S(=O)(NCCNc1nccc(-n2cnc3ccccc32)n1)c1ccc(F)cc1 [12b] | activity at 10 µM | 97.8
O=S(=O)(NCCNc1nccc(-n2cnc3ccccc32)n1)c1ccc(C(F)(F)F)cc1 [12e] | activity at 10 µM | 63.4
O=S(=O)(NCCNc1nccc(-n2cnc3ccccc32)n1)c1ccc(Cl)cc1 [12c] | activity at 10 µM | 101

---

- Test system: NCI-H23
- assay_overview: NCI 60 cell line screen
- Format: cell-based, human
- measurement_context: Homo sapiens; NCI-H23, Non-Small Cell Lung Cancer; read-out: Percent growth
- Experimental: Anticancer profiling over a panel of 60 cancer cell lines was carried out at the National Cancer Institute (NCI), Bethesda, Maryland, USA, https://dtp.cancer.gov/discovery_development/nci-60/methodology.htm (Last visit 22 September 2021), using the standard procedure (detailed procedure is located in the Supplementary Information page 50 s). NCI standard procedure for 60 cell lines assay […] Three dose response parameters are calculated for each experimental agent. […] (TGI) is calculated from Ti = Tz.

compound | activity at 10 µM
O=S(=O)(NCCCNc1nccc(-n2cnc3ccccc32)n1)c1ccc(C(F)(F)F)cc1 [12l] | 82.5%
O=S(=O)(NCCCNc1nccc(-n2cnc3ccccc32)n1)c1ccc(F)cc1 [12i] | 70.4%
O=S(=O)(NCCCNc1nccc(-n2cnc3ccccc32)n1)c1ccc(Cl)cc1 [12j] | 97.1%
O=S(=O)(NCCNc1nccc(-n2cnc3ccccc32)n1)c1ccc(C(F)(F)F)cc1 [12e] | 54.5%
